Below are compounds with their IC50 as measured on PKCθ (Homo sapiens).
Sequence (Q04759 whole entry): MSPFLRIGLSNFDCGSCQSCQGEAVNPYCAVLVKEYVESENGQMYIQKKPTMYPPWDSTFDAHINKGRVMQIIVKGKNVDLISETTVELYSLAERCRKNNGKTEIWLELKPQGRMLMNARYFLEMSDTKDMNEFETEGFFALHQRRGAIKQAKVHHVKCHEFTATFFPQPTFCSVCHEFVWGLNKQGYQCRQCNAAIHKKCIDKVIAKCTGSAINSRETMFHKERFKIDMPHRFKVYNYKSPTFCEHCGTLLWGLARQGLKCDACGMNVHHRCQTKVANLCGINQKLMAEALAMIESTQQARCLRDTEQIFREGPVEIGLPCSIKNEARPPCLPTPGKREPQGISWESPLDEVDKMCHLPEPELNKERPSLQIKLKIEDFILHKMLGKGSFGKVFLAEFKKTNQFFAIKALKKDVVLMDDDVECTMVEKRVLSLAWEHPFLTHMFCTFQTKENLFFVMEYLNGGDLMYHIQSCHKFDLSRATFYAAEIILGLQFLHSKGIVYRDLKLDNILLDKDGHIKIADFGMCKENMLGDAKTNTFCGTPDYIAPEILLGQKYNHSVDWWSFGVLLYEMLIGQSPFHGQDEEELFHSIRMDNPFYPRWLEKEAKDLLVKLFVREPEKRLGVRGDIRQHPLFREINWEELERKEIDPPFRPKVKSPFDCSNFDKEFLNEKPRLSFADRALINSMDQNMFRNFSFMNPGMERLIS

Known IC50 results, listed for orientation:
compound=O=C1NC(=O)C(c2nc(N3CCN4CCC[C@@H]4C3)nc3cccc(F)c23)=C1c1c[nH]c2sccc12 recorded_endpoint=IC50 result="< 100 nM"
compound=CN1CCN(c2cc3ccc(F)cc3c(C3=C(c4c[nH]c5sccc45)C(=O)NC3=O)n2)CC1 recorded_endpoint=IC50 result="< 100 nM"
compound=O=C1NC(=O)C(c2c[nH]c3ccsc23)=C1c1nc(NC2CCNCC2)nc2ccccc12 recorded_endpoint=IC50 result="100 to 500 nM"
compound="O=C1NC(=O)C(c2nn(C[C@H]3CCNC[C@H]3F)c3ccccc23)=C1c1c[nH]c2sccc12 (relative stereo)" recorded_endpoint=IC50 result="< 100 nM"

Task: Report IC50 from PKCθ (Homo sapiens) testing of CC(C)N1CCN(c2nc(C3=C(c4c[nH]c5sccc45)C(=O)NC3=O)c3ccccc3n2)CC1
Output: < 100 nM
